Molecular target: CDK4/cyclin D3 (Homo sapiens, UniProt P11802)
Construct: purchased Carna Biosciences, Inc. QS S Assist CDK4/Cyclin D3_FP Kit
Sequence (P11802 whole entry): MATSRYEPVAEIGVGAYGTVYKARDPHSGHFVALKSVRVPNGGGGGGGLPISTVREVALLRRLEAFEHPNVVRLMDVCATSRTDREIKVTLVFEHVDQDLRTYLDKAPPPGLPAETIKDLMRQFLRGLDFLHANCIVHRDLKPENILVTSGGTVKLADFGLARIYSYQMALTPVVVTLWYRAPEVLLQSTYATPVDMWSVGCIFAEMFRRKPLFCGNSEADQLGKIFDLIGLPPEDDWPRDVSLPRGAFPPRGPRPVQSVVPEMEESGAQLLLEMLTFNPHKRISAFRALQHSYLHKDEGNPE
Sequence (P30281 whole entry partner): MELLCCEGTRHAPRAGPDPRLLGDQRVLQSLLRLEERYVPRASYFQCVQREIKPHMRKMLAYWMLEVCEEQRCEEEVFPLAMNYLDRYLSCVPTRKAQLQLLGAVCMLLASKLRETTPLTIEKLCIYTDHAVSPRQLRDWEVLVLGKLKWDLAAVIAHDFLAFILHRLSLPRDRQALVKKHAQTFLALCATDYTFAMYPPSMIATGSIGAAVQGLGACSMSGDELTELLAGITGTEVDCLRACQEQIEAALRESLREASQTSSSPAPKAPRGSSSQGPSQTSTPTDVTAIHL
Test: Human CDK4/cyclin D3 inhibitory activity (QS S Assist CDK4/Cyclin D3_FP Kit, IMAP fluorescence polarization)
Assay type: biochemical
Conditions: 50% inhibitory concentration against CDK4/cyclin D3, given as class symbol
pIC50: −log10 of the molar value.
Readout: pIC50

CCCNc1nc([C@@H](C)OC)cc2cnc(Nc3ccc(CN4CCNCC4)cn3)nc12 : > 8.00
CC(C)Nc1nc([C@H](C)O)cc2cnc(Nc3ccc(N4CCNCC4=O)cn3)nc12 : 7.00 to 8.00

Proceeding to the next compound to report its pIC50.
Qu. State its pIC50: `C[C@@H](O)c1cc2cnc(Nc3ccc(CN4CCN(CCO)CC4)cn3)nc2c(NCC(C)(F)F)n1`
Ans. > 8.00

----------
Target: CDK4/cyclin D3 (Homo sapiens, UniProt P11802)
Construct: purchased Carna Biosciences, Inc. QS S Assist CDK4/Cyclin D3_FP Kit
Test: Human CDK4/cyclin D3 inhibitory activity (QS S Assist CDK4/Cyclin D3_FP Kit, IMAP fluorescence polarization)
Assay type: biochemical
Details: Human CDK4/cyclin D3 inhibitory activity; read-out: CDK4 Activity symbol
pIC50: −log10 of the molar value.
Field: pIC50. Provide a value for each of the compounds that follow.

Consider the following illustrative entries.
CC(C)Nc1nc([C@@H](C)O)cc2cnc(Nc3ccc(N4CCCN(C)CC4)nn3)nc12 [Compound 490] : > 8.00
CCN1CCN(Cc2ccc(Nc3ncc4cc([C@@H](C)O)nc(NC(C)(C)COC)c4n3)nc2)CC1 [Compound 244] : > 8.00
CO[C@H](C)c1cc2cnc(Nc3ccc(OC4CC5(CNC5)C4)cn3)nc2c(NC(C)C)n1 [Compound 483] : > 8.00
CC(C)Nc1nc(C(F)F)cc2cnc(Nc3ccc(OCCCN4CCCC4=O)cn3)nc12 [Compound 123] : 7.00 to 8.00
CC(C)Nc1nc(C(F)F)cc2cnc(Nc3ccc(CCC(C)(C)O)cn3)nc12 [Compound 154] : > 8.00
COC(C)c1cc2cnc(Nc3ccc(CN4CCNCC4)cn3)nc2c(NC2CC3(C2)CC(C(=O)O)C3)n1 (centres unmarked) [Compound 513] : 7.00 to 8.00

State the recorded pIC50 for every item in the following list.
1. CNc1nc(C(F)F)cc2cnc(Nc3ccc(N4CCNCC4)cn3)nc12 [Compound 19]
2. COC(C)c1cc2cnc(Nc3ccc(CN4CCNCC4)cn3)nc2c(NCCC2CCCOC2)n1 (centres unmarked) [Compound 431]

Ans.
["> 8.00", "> 8.00"]
